# maps each entry to its EC50
- TARGET OF ASSAY: Peroxisome proliferator-activated receptor gamma (Homo sapiens)
- Sequence (P37231 whole entry): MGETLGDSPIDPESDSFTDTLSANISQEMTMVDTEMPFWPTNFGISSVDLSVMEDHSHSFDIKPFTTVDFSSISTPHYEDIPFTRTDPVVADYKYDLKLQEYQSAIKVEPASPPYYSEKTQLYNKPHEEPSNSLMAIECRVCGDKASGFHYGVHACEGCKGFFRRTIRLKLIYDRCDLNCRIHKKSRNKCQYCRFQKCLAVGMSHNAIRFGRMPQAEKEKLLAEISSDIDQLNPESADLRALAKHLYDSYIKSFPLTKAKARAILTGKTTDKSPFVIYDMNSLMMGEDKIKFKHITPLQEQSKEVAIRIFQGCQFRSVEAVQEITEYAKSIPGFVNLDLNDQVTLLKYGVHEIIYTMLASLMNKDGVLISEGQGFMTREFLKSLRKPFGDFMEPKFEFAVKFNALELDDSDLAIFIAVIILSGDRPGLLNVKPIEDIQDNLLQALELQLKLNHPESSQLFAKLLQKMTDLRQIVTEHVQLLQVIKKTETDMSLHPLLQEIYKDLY
- METHOD: Activity against PPAR gamma in human by FRET assay
Note: unit nM is implicit; provide only the numeric part.

Below, 5 compounds whose answers are already recorded.
>>> reported("CCC(C(=O)O)C1CCc2cc(OCCc3nc(-c4ccccc4F)oc3C)ccc21 (stereo not given)")
49
>>> reported("CCC(C(=O)O)C1CCc2cc(OCc3nc(-c4ccccc4)oc3C)ccc21 (stereo not given)")
632
>>> reported("CCC(C(=O)O)C1CCc2cc(OCCc3nc(-c4ccc(Cl)cc4Cl)oc3C)ccc21 (stereo not given)")
738
>>> reported("CCC(C(=O)O)C1CCc2cc(OCCc3nc(-c4ccc5ccccc5c4)oc3C)ccc21 (stereo not given)")
16
>>> reported("CCC(C(=O)O)C1CCc2cc(OCCc3nc(-c4ccccc4)sc3C)ccc21 (stereo not given)")
85

IN: // lookup EC50 for CC[C@@H](C(=O)O)[C@H]1CCc2cc(OCCc3nc(-c4ccc(Cl)c(Cl)c4)oc3C)ccc21
OUT: 225

IN: Try CCC(C(=O)O)C1CCc2cc(OCCc3nc(-c4ccc(F)cc4)oc3C)ccc21 (stereo in doubt) next.
OUT: 154

IN: Try Cc1oc(-c2ccccc2)nc1CCOc1ccc2c(c1)CCC2C(C(=O)O)c1ccccc1 (stereo not given) next.
OUT: 9560
